# Tested on: gastric secretion (HCl) (rat stomach)
# Test Protocol: Shay rat: inhibition of gastric secretion (HCl) in the course of 4 h
# Assay type: in vivo
# Assay Setup: Rattus norvegicus, po; perorally, rats; dose reducing HCl secretion (4 h) by 25% vs control
# binarize ED25: threshold 0.5 mg/kg inclusive, high side fulfilled, low side not fulfilled

# Molecule, Category
rows = [
    ("COc1ccnc(C[S+]([O-])c2nc3cc(OC(F)(F)F)ccc3[nH]2)c1C (stereo not shown)", "not fulfilled"),
    ("COc1ccc2[nH]c(SCc3ncc(C)c(OC)c3C)nc2c1 [Serial No. A, reference compound]", "fulfilled"),
    ("COc1ccc2[nH]c([S+]([O-])Cc3ncc(C)c(OC)c3C)nc2c1 (stereo not shown) [Serial No. B, reference compound]", "fulfilled"),
    ("COc1ccnc(C[S+]([O-])c2nc3cc(OC(F)(F)C(F)F)ccc3[nH]2)c1C (stereo not shown)", "not fulfilled"),
    ("COc1ccnc(CSc2nc3cc(OC(F)(F)F)ccc3[nH]2)c1C", "not fulfilled"),
    ("COc1ccc2[nH]c(SCc3cc(OC)c(C)cn3)nc2c1 [Serial No. C, reference compound]", "fulfilled"),
    ("COc1ccc2[nH]c([S+]([O-])Cc3cc(OC)c(C)cn3)nc2c1 (stereo not shown) [Serial No. D, reference compound]", "fulfilled"),
]
